In this section, each of the variants is paired with its reported protein stability index.
B1: GFOD1 (parent)
chain: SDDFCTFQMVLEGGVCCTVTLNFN

variants of: B1; assay: protein stability index of a GFP-peptide fusion (GPS, HEK-293T) (PSI 1-6); higher = more stable; details: c terminus: a fixed tail appended;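 further: lentivirally expressed fusions sorted by FACS into six bins by GFP to DsRed ratio, PSI derived from sequencing read proportions per bin multiplied by bin number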

- monomer_sequence: "KDDFCTFQMVLEGGVCCTVTLNFN [S1K]"
  protein stability index: 3.01
- monomer_sequence: "SDDFCTFQMVLEGGVCCTVNLNFN [T20N]"
  protein stability index: 3.6
- monomer_sequence: "SDDFCTFQMKLEGGVCCTVTLNFN [V10K]"
  protein stability index: 2.56
- monomer_sequence: "SDDFCTFQMVLEGGVCCTVTLNQN [F23Q]"
  protein stability index: 1.24
- monomer_sequence: "SDDFCTFQMPLEGGVCCTVTLNFN [V10P]"
  protein stability index: 2.35
- monomer_sequence: "SDDFCTFQMVLEGLVCCTVTLNFN [G14L]"
  protein stability index: 3.96
- monomer_sequence: "SDDFCTFQMVLEGGMCCTVTLNFN [V15M]"
  protein stability index: 3.15
- monomer_sequence: "SDDFCTFQMVLEGGFCCTVTLNFN [V15F]"
  protein stability index: 3.41
- monomer_sequence: "PDDFCTFQMVLEGGVCCTVTLNFN [S1P]"
  protein stability index: 2.84
- monomer_sequence: "SDDFCTFQMVAEGGVCCTVTLNFN [L11A]"
  protein stability index: 1.26
- monomer_sequence: "SDDFCTFQMHLEGGVCCTVTLNFN [V10H]"
  protein stability index: 2.2
- monomer_sequence: "SDDFCTFQMVLEGGVCCTVTPNFN [L21P]"
  protein stability index: 2.02
- monomer_sequence: "SDAFCTFQMVLEGGVCCTVTLNFN [D3A]"
  protein stability index: 2.55
- monomer_sequence: "SDDFCTFQMVLEAGVCCTVTLNFN [G13A]"
  protein stability index: 3.65
- monomer_sequence: "SDDFCTFQMVLEGYVCCTVTLNFN [G14Y]"
  protein stability index: 1.83
- monomer_sequence: "SDDFCTFQMVLEGGVCCDVTLNFN [T18D]"
  protein stability index: 3.76
- monomer_sequence: "SDDFCTFQMVLEGKVCCTVTLNFN [G14K]"
  protein stability index: 2.74
- monomer_sequence: "TDDFCTFQMVLEGGVCCTVTLNFN [S1T]"
  protein stability index: 3.26
- monomer_sequence: "SDDFCTFQMILEGGVCCTVTLNFN [V10I]"
  protein stability index: 1
- monomer_sequence: "SDDFCTFQMVLAGGVCCTVTLNFN [E12A]"
  protein stability index: 3.59
- monomer_sequence: "SSDFCTFQMVLEGGVCCTVTLNFN [D2S]"
  protein stability index: 3.14
- monomer_sequence: "SDDFCTFQMVLEGGVCCTVPLNFN [T20P]"
  protein stability index: 1.49
- monomer_sequence: "SDDFCWFQMVLEGGVCCTVTLNFN [T6W]"
  protein stability index: 2.35
- monomer_sequence: "QDDFCTFQMVLEGGVCCTVTLNFN [S1Q]"
  protein stability index: 1.76
- monomer_sequence: "SDDFCTFQMVLEGGVCCTVTLNIN [F23I]"
  protein stability index: 3.75
- monomer_sequence: "SDDFCTFQGVLEGGVCCTVTLNFN [M9G]"
  protein stability index: 3.57
- monomer_sequence: "SDDFCTFQMVLEGGVPCTVTLNFN [C16P]"
  protein stability index: 2.65
- monomer_sequence: "SDDFCTFQMVLEGGVCCFVTLNFN [T18F]"
  protein stability index: 2.37
- monomer_sequence: "SDDFCTFQMVLEGGVCCTKTLNFN [V19K]"
  protein stability index: 1.22
- monomer_sequence: "SDDFCTFQMVLEGGYCCTVTLNFN [V15Y]"
  protein stability index: 4.1
- monomer_sequence: "HDDFCTFQMVLEGGVCCTVTLNFN [S1H]"
  protein stability index: 2.21
- monomer_sequence: "SDDFCTFQMVLEGGVYCTVTLNFN [C16Y]"
  protein stability index: 2.76
- monomer_sequence: "SDDFCTFQMVLEGGVCCTVFLNFN [T20F]"
  protein stability index: 3.21
- monomer_sequence: "SDDFCTFQMVLEGGVSCTVTLNFN [C16S]"
  protein stability index: 3.6
- monomer_sequence: "SDDFCTFQMVLEGGVCCTVTANFN [L21A]"
  protein stability index: 2.61
- monomer_sequence: "SDDFCTFQMVLHGGVCCTVTLNFN [E12H]"
  protein stability index: 2.37
- monomer_sequence: "SDDFCAFQMVLEGGVCCTVTLNFN [T6A]"
  protein stability index: 2.79
- monomer_sequence: "SDDFCTTQMVLEGGVCCTVTLNFN [F7T]"
  protein stability index: 2.64
- monomer_sequence: "DDDFCTFQMVLEGGVCCTVTLNFN [S1D]"
  protein stability index: 2.52
- monomer_sequence: "SDDFMTFQMVLEGGVCCTVTLNFN [C5M]"
  protein stability index: 3.18
- monomer_sequence: "SDDFCTFQMVLEGGVCCLVTLNFN [T18L]"
  protein stability index: 2.5
- monomer_sequence: "SDDFCTFQMVLEGRVCCTVTLNFN [G14R]"
  protein stability index: 1.6
- monomer_sequence: "SDDFCTFQMVLEGGVCCTVTFNFN [L21F]"
  protein stability index: 2.73
- monomer_sequence: "SDDFCTGQMVLEGGVCCTVTLNFN [F7G]"
  protein stability index: 2.88
- monomer_sequence: "SDPFCTFQMVLEGGVCCTVTLNFN [D3P]"
  protein stability index: 3.01
- monomer_sequence: "SDDFCTFQMVLEGGECCTVTLNFN [V15E]"
  protein stability index: 2.33
